# Test system: OVCAR-4 ovarian
# measurement notes: NCI-60 one-dose screen, 48 h
# condition description: 10 µM unless noted
The panel holds about 83,000 compounds, 20% with a hit somewhere; the sample as a whole holds those more often. Calls of active or inactive are those of the source. How the source made its calls: active means growth percent below 10; inactive means the rest.
In this exercise, the only acceptable responses are Y for active, N for inactive

Check out these entries, answers already filled in.
# molecule, system, label value
records = [
    ("COc1ccc(C(C)=O)cc1S(=O)(=O)Nc1c(N)nc(SC)[nH]c1=O", "OVCAR-4 ovarian", "N"),
    ("Cc1ccc(CNc2ccc3nc(CCC4CCCCC4)[nH]c3c2)cc1", "OVCAR-4 ovarian", "N"),
    ("CCOC(=O)Cc1cnc(N/N=C(\\C)c2cc3ccccc3o2)s1", "OVCAR-4 ovarian", "N"),
    ("O=C(/C=C/c1ccccc1)Nc1ncc(Cc2ccccc2Cl)s1", "OVCAR-4 ovarian", "N"),
    ("c1ccc2cc(C[n+]3ccn(CCCCCCCCCCn4cc[n+](Cc5ccc6ccccc6c5)c4)c3)ccc2c1", "OVCAR-4 ovarian", "N"),
    ("c1ccc(-c2oc(-c3ccccc3)c(CN3CCCCC3)c2CN2CCCCC2)cc1", "OVCAR-4 ovarian", "N"),
    ("COc1cc2c(cc1OCCCN1CCN(CCCOc3cc4c(cc3OC)C(=O)N3CC(F)(F)C[C@H]3C=N4)CC1)N=C[C@@H]1CC(F)(F)CN1C2=O", "OVCAR-4 ovarian", "N"),
    ("CCOc1ccc(NC(=O)CSc2oc(-c3ccccc3)nc2S(=O)(=O)c2ccc(C)cc2)cc1", "OVCAR-4 ovarian", "N"),
]

Please state the recorded outcome for this molecule: O=S(=O)(NCCNc1nccc(-c2c(-c3ccc(F)c(O)c3)nc3sccn23)n1)c1ccc(O)cc1 N

Please state the recorded outcome for this molecule: CCOC(=O)c1cc2c(n1C)-c1nc(NC(C)=O)sc1CCC2 N

Please state the recorded outcome for this molecule: C=CCOC(=O)Nc1cccn([C@H](Cc2ccccc2)C(=O)NCCC(C)C)c1=O N

----------
# Test system: U251 CNS
# measurement notes: NCI-60 one-dose screen, 48 h (100 = growth as untreated, 0 = no growth, -100 = all killed)
# condition description: 10 µM unless noted
About 83,000 compounds went through this panel and 20% of them were active in at least one assay; those are over-represented in the sample as a whole.
Dear colleague, classification is by growth, with ranges listed here: low bracket = under 20%, middle bracket = from 20% up to 90%, high bracket = 90% and over

# compound, label value
data = [
    ("CC(=O)Oc1ccc(C)cc1C", "high bracket"),
    ("CN(C)CC1CCC(CN(C)C)C1=O (stereo unspecified)", "high bracket"),
    ("CC1CCN(CCOc2ccc(CNc3ccc4nc(CCC5CCCCC5)[nH]c4c3)cc2)CC1", "low bracket"),
    ("c1ccc(Cn2cc3c(c2)-c2oncc2CC3)cc1", "middle bracket"),
    ("CC(=O)Oc1ccc(N2C(=O)C(Cl)=C(Nc3cccc(C(F)(F)F)c3)C2=O)cc1", "high bracket"),
]

For this compound, which bin applies? CCOC(=O)c1c(NC(=O)c2cccc(C(F)(F)F)c2)sc2c(CN(C)C)c(O)ccc12 low bracket

For this compound, which bin applies? COc1ccc2c(c1OC)CO[C@@H]2[C@H]1c2c(cc3c(c2OC)OCO3)CCN1S(=O)(=O)c1cn(C)cn1 low bracket

For this compound, which bin applies? Cn1cc(-c2csc(-c3c[nH]c4ccc(Br)cc34)n2)c2ccnc(Cl)c21 middle bracket

For this compound, which bin applies? OB1OCc2cc(/C=C/c3cccc(C(F)(F)F)c3)ccc21 low bracket

For this compound, which bin applies? CCCCNC(=O)CC1=C(C)/C(=C/c2[nH]c(-c3ccc[nH]3)cc2OC)N=C1C middle bracket

----------
# Test system: COLO 205 colon
# measurement notes: NCI-60 one-dose screen, 48 h
# condition description: 10 µM unless noted
Compounds without any hit were thinned out: in the full panel of roughly 83,000, 20% have a hit. Active and inactive are the calls of the source. How the source made its calls: active means growth percent below 10; inactive means the rest.
In this exercise, the only acceptable responses are yes (1) for active, no (0) for inactive

Check out these entries, answers already filled in.
# compound, system, label value
data = [
    ("C#CCOc1ccc2ncnc(Nc3ccc(NC(=O)C=C)cc3)c2c1", "COLO 205 colon", "yes (1)"),
    ("N=C(N)c1ccc(-c2ccc(-c3ccc(Cl)cc3Cl)s2)cc1", "COLO 205 colon", "yes (1)"),
    ("COC(=O)[C@@H](CCCCNC(=O)[C@]12CCC(C)(C)C[C@@H]1C1=CC[C@@H]3[C@@]4(C)C/C(=C/c5ccco5)C(=O)C(C)(C)[C@@H]4CC[C@@]3(C)[C@]1(C)CC2)NC(=O)[C@]12CCC(C)(C)C[C@@H]1C1=CC[C@@H]3[C@@]4(C)C/C(=C/c5ccco5)C(=O)C(C)(C)[C@@H]4CC[C@@]3(C)[C@]1(C)CC2", "COLO 205 colon", "no (0)"),
    ("Clc1ccc2c(NC3CCC(N4CCOCC4)CC3)ccnc2c1 (configuration not stated)", "COLO 205 colon", "no (0)"),
    ("CCOC(=O)Cc1cnc(N/N=C(\\C)c2cc3ccccc3o2)s1", "COLO 205 colon", "no (0)"),
]

Please state the recorded outcome for this compound: CCN1CCN(C(=O)[C@]23CCC(C)(C)C[C@@H]2C2=CC[C@@H]4[C@@]5(C)CCC(=O)C(C)(C)[C@@H]5CC[C@@]4(C)[C@]2(C)CC3)CC1 no (0)

Please state the recorded outcome for this compound: c1cnc2c(-c3nc4ccc5[nH]ncc5c4c4c3CCCC4)c[nH]c2c1 no (0)

----------
# Tested on: RPMI-8226 leukemia
# measurement notes: NCI-60 one-dose screen, 48 h
# condition description: 10 µM unless noted
Compounds without any hit were thinned out: in the full panel of roughly 83,000, 20% have a hit. The source made the active and inactive calls. The calls were made as follows: active = growth percent below 10; inactive = the rest.
In this exercise, the only acceptable responses are label 1 for active, label 0 for inactive

# compound, label value
rows = [
    ("Cc1cc(=O)n(C(=O)Nc2ccccc2Cl)c2cc(O)ccc12", "label 0"),
    ("O=C(CSc1nc2sc3c(c2c(=O)n1-c1ccccc1)CCCCC3)N/N=C/c1cccc([N+](=O)[O-])c1", "label 0"),
    ("c1ccc(-c2oc(-c3ccccc3)c(CN3CCCCC3)c2CN2CCCCC2)cc1", "label 1"),
    ("Cc1ccc(-c2nc(N3CCCNCC3)c3oc(-c4ccccc4)nc3n2)cc1", "label 1"),
    ("C#Cc1c2c(c(OC)c3c1OCO3)[C@H]([C@H]1OC(=O)c3c1ccc(OC)c3OC)N(C)CC2", "label 0"),
    ("COc1ccc(/C=C(\\C#N)n2nnc3cc(F)c(F)cc32)cc1", "label 0"),
    ("CCOC(=O)n1cc(-c2nonc2-c2cn(C(=O)OCC)c3ccc(Br)cc23)c2ccccc21", "label 0"),
    ("Cc1ccc(C)n1-c1ccccc1-n1c(C)ccc1C", "label 0"),
]

Please state the recorded outcome for this compound: COc1cc(-c2csc(NC(=O)c3ccc(N4CCOCC4)c(C(F)(F)F)c3)n2)cc(OC)c1OC label 1

Please state the recorded outcome for this compound: CSc1nc2ccccc2cc1/C=C1/C=C(c2ccccc2)NC1=O label 0

----------
Measured growth by item
# System: SW-620 colon
# measurement notes: NCI-60 one-dose screen, 48 h (100 = growth as untreated, 0 = no growth, -100 = all killed)
# condition description: 10 µM unless noted
Compounds without any hit were thinned out: in the full panel of roughly 83,000, 20% have a hit.
# output: bare number, implied unit %

Before answering, review these 8 worked examples.
# molecule, growth [%]
rows = [
    ("O=C1NC2(Nc3ccccc31)C(=O)Nc1c(Cl)cc(Cl)cc12 (stereo not given)", 100),
    ("CC(=O)O[C@H]1CC2CCC3C(CC[C@@]4(C)C3C[C@H]([N+]3(C)CCCCC3)[C@@H]4OC(C)=O)[C@@]2(C)C[C@@H]1N1CCCCC1 (stereo not given in full)", 106),
    ("O=S(=O)(Nc1cc(F)cc(Cl)c1)c1ccc(-c2cnc(C3CC3)o2)cc1", 12),
    ("CCCCNCCCCCNc1cc(OC)cc2cccnc12", 100),
    ("O=S(=O)(Nc1ccc(Cl)c(C(F)(F)F)c1)c1ccc(-c2cnc(C3CC3)o2)cc1", 22.4),
    ("O=C(Nc1ccc(OS(=O)(=O)c2ccc(F)cc2)cc1)C1CCCCCC1", 88.9),
    ("O=C(CN1CCOCC1)Nc1nc(-c2cc3ccccc3oc2=O)cs1", 101),
    ("NS(=O)(=O)c1ccccc1NC(=O)Nc1nc2ccccc2s1", 101),
]

Read off the recorded growth for COc1ccc(C2=Nc3c(N)nc(N)nc3NC(c3cccc(Nc4ccnc5cc(C(F)(F)F)ccc45)c3)C2)cc1 (stereo not given) 50.4

Read off the recorded growth for C=CCn1c(C)nc2ccc(Nc3nc(Nc4ccc5nc(C)n(CC=C)c5c4)c4ccccc4n3)cc21 -80.5

Read off the recorded growth for CCCC/C(CC)=N\NS(=O)(=O)c1ccc([N+](=O)[O-])cc1 106

Read off the recorded growth for N#Cc1ccc(O)c(C2=NCC(c3cccc(Oc4ccccc4)c3)O2)c1 (stereo not given) 25.6

Read off the recorded growth for COc1ccc(/C=N/NC(=O)c2ccc(-n3cc(-c4ccccc4)nn3)cc2)cc1OC 116

Read off the recorded growth for CCCCCN1C(=O)/C(=c2\sc3n(c2=O)C2C(NN=3)N(CC)C(=O)N2CC)c2ccccc21 (stereo not given) -42.1
